- Target or test system: p110γ (Homo sapiens)
- Sequence (P48736 whole entry): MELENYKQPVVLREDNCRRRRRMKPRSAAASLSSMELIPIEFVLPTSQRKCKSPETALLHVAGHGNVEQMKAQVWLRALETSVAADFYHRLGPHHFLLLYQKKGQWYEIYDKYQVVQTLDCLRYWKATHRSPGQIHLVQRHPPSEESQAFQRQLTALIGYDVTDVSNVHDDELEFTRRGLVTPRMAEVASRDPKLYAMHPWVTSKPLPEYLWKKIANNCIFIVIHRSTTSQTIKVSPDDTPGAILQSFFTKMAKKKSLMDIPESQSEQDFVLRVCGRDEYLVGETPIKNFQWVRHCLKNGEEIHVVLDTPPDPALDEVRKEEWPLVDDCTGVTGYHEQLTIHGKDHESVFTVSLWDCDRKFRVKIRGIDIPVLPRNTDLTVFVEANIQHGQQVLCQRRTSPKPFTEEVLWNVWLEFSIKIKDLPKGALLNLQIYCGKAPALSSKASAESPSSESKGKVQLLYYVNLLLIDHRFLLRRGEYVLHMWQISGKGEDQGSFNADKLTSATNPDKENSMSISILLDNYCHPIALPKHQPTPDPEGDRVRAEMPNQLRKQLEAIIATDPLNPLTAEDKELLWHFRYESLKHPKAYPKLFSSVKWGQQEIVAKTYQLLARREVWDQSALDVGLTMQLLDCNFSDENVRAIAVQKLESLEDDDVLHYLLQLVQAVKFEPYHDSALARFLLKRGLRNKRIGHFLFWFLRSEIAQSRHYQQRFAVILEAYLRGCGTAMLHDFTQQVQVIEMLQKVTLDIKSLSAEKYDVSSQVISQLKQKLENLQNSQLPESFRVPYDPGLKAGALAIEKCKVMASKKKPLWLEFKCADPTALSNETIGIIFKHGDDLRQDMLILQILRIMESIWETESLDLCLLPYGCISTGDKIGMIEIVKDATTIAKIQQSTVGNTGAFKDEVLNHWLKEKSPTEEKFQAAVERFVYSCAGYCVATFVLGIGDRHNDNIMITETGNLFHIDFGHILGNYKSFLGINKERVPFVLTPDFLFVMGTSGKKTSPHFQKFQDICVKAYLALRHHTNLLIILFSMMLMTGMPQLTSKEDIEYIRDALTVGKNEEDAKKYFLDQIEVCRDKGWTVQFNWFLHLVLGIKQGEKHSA
- Test summary: Transcreener KINASE Assay, kinase inhibition of p110γ
- Type: biochemical
- Assay setup: 1 uM test compound
Measure name: PI3Kγ IH % @ 1 uM (%)

O=c1c2c(Cl)ccn2nc([C@@H]2CCCN2c2ncnc3[nH]cnc23)n1-c1ccccc1 = 93.3
CC(Nc1nc(N)ncc1C(F)(F)F)c1cc2ncc(Cl)n2c(=O)n1-c1ccccc1 (stereo not shown) = 93.7

* * *

- Target or test system: p110δ/p85α (Homo sapiens, UniProt O00329)
- Sequence (O00329 whole entry): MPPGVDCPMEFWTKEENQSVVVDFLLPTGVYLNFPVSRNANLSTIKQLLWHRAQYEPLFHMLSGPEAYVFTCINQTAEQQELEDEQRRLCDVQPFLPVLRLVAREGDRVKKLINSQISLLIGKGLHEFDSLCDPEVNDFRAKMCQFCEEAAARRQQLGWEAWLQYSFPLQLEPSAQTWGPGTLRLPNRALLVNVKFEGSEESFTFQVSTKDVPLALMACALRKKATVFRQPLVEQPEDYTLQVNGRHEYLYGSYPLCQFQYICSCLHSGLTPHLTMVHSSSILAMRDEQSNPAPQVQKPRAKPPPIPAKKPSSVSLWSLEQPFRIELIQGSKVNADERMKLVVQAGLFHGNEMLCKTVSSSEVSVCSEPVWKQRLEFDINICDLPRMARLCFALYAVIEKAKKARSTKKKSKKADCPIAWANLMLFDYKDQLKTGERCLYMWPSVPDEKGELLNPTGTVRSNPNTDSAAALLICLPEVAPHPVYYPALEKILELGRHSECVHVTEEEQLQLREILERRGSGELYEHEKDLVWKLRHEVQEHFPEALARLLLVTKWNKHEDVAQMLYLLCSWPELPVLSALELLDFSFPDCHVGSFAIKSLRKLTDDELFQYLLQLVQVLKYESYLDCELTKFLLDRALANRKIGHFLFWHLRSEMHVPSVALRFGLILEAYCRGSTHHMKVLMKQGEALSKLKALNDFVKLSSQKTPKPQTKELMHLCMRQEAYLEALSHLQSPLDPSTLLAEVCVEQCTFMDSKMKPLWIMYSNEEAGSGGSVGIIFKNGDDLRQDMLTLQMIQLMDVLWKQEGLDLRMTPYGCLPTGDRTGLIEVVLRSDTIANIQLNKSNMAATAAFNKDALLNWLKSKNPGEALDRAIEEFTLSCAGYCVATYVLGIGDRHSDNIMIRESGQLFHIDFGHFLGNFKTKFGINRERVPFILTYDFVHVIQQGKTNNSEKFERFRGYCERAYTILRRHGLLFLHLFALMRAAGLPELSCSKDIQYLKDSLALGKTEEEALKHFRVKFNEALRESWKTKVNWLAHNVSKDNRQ
- Sequence (P27986 whole entry partner): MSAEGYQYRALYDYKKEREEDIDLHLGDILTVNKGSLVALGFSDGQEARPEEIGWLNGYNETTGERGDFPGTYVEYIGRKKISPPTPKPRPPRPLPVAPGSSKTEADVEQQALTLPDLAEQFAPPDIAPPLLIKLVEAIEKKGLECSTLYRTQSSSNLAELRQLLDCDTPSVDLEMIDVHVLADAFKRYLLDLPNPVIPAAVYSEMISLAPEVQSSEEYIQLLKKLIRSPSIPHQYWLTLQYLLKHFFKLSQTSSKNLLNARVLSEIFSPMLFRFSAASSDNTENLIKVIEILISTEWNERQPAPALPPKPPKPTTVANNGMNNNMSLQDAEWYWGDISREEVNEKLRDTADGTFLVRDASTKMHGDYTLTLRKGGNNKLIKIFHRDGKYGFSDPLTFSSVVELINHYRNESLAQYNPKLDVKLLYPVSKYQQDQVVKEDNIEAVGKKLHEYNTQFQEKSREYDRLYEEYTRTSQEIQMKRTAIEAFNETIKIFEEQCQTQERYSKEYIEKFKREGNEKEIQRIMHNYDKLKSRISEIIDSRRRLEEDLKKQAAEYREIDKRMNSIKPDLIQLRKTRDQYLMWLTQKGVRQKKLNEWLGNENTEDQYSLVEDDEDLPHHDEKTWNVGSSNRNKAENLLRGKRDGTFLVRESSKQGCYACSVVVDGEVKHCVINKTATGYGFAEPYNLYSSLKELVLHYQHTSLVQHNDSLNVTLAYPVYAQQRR
- Test summary: Transcreener KINASE Assay, kinase inhibition of p110δ/p85α
- Format: biochemical
- Assay setup: 1 uM test compound
- Protocol: PI3K kinases including p110α/p85α, p110δ/p85α and p110γ are purchased from Invitrogen, and p110β/p85α is from Millipore. Primary screening data and IC50 values are measured using Transcreener™ KINASE Assay (Bellbrook, Catalog #3003-10K). […] It is a universal, homogenous, high throughput screening (HTS) technology using a far-red, competitive fluorescence polarization immunoassay based on the detection of ADP to monitor the activity of enzymes that catalyze group transfer reactions. […]
Measure name: PI3Kδ IH % @ 1 uM (%)

CC(=O)c1cnc(N)nc1N1CCC1c1nn2ccc(Cl)c2c(=O)n1-c1ccccn1 (stereo not drawn) [Compound 474] = 99.3
CC(=O)c1c[nH]c2ncnc(N3CC(=O)C[C@H]3c3nn4ccc(Cl)c4c(=O)n3-c3ccccc3)c12 [Compound 402] = 93.4
CC(=O)c1c[nH]c2ncnc(N3CCC[C@H]3c3nn4ccc(Cl)c4c(=O)n3-c3cccc(F)c3)c12 [Compound 210] = 98.6
Nc1nc2c(c(N3C[C@@H](F)C[C@H]3c3nn4ccc(F)c4c(=O)n3-c3ccccc3)n1)C(=O)CCN2 [Compound 250] = 99.1
COCCNC(=O)c1c[nH]c2ncnc(N3CCC[C@H]3c3nn4ccc(Cl)c4c(=O)n3-c3ccccc3)c12 [Compound 226] = 98.7
Nc1nc(N2CC(F)(F)C[C@H]2c2nn3ccc(Cl)c3c(=O)n2-c2ccccc2)n2nccc2n1 [Compound 136] = 83.5

a. CC(C)Cn1c([C@@H]2CCCN2c2ncnc3[nH]cc(C#N)c23)nn2ccc(Cl)c2c1=O [Compound 64]
b. COCc1ccn2nc([C@@H]3CCCN3c3nc(N)ncc3C(F)(F)F)n(-c3ccccc3)c(=O)c12 [Compound 151]
// which entry has the larger PI3Kδ IH % @ 1 uM value, a or b ? Identify your selection by its label. a
(a: 98.9%, b: 52.4%)

* * *

- Target or test system: p110δ/p85α (Homo sapiens)
- Test summary: Transcreener KINASE Assay, kinase inhibition of p110δ/p85α
- Format: biochemical
- Assay setup: 1 uM test compound
- Method: PI3K kinases including p110α/p85α, p110δ/p85α and p110γ are purchased from Invitrogen, and p110β/p85α is from Millipore. Primary screening data and IC50 values are measured using Transcreener™ KINASE Assay (Bellbrook, Catalog #3003-10K). […] It is a universal, homogenous, high throughput screening (HTS) technology using a far-red, competitive fluorescence polarization immunoassay based on the detection of ADP to monitor the activity of enzymes that catalyze group transfer reactions. […]
Measure name: PI3Kδ IH % @ 1 uM (%)

Cc1nc(N)nc(N2CCC2c2nn3ccc(Cl)c3c(=O)n2-c2ccccn2)c1C#N (stereo not shown) = 94.9
N#Cc1c[nH]c2ncnc(N3CCC[C@H]3c3nn4ccc(Cl)c4c(=O)n3CC(F)(F)F)c12 = 98.1

Value source: patent US20150307520A1
